Source: PubChem BioAssay (NCI)

# experiment: NCI Yeast Anticancer Drug Screen. Data for the mec2-1 strain (AID 157)
# conditionLabel: S. cerevisiae mec2-1 strain, at 50.0 µM (retest, dose inferred, filed as 5.0)
About 79,000 compounds went through this panel and 15% of them were active in at least one assay; those are over-represented in the sample as a whole. Calls of active or inactive are those of the source. Rule as the data show it: active = growth inhibition above about 70%; inactive = the rest.
Pick one and only one: YES = active, NO = inactive

1. CC(C)c1ccc2c(c1)CCC1C(C)(CNC(=O)S)CCCC21C.[Zn+2] (configuration not stated) :: NO
2. CC(C)Cn1cnc2c(SCc3ccc(Cl)cc3Cl)nc(N)nc21 :: NO
3. CC1SC2(C(=O)Nc3ccc(Br)cc32)N(c2ccc(Cl)cc2)C1=O (configuration not stated) :: YES
4. N#CC(C(=O)CCCC(=O)Nc1ccc(Cl)cc1)c1ccccc1Cl (configuration not stated) :: NO
5. CCCCCCCCCCCCCCCC(=O)NCCN(C)C :: YES

Kindly provide the recorded test outcome for the following compound: `CCOC(=O)Sc1nc2ccccc2[nH]1`
NO

Could you kindly confirm the outcome this assay logged for `NC(=S)C(=S)N=Cc1c(N)[nH]n(-c2ccccc2)c1=O` ?
NO

Recorded call for `O=[N+]([O-])c1ccc(Sc2ccc([N+](=O)[O-])o2)cc1` ?
YES

Status in this test for `CCOC(=O)Nc1nc2ccc(SC#N)cc2s1` ?
YES

Kindly provide the recorded test outcome for the following compound: `CC[n+]1c(/C=C/c2ccc(N(C)C)cc2)ccc2ccccc21`
YES

Recorded test call requested for `CCOC(=O)Cn1c(=O)c2nc(SC)sc2n(-c2ccc(C)cc2)c1=S`
NO

Returns: the outcome recorded for `CCN(CC)c1ccc(N=Nc2ccc(Br)cn2)c(O)c1` in this assay.
YES

----------
# experiment: NCI Yeast Anticancer Drug Screen. Data for the cln2 rad14 strain (AID 165);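 also: 0% = growth equal to vehicle treated cultures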
# conditionLabel: S. cerevisiae cln2 rad14 strain, at 50.0 µM
Compounds without any hit were thinned out: in the full panel of roughly 79,000, 15% have a hit. Calls of active or inactive are those of the source. Rule as the data show it: active = growth inhibition above about 70%; inactive = the rest.
Give your call using only these classes: active, inactive

Dear all, I need the recorded test outcome for CN(C)CCC1(C2=CCCC2)CC/C(=C\c2ccc(Cl)cc2)C1=O (configuration not stated) , thank you.
active

I would be grateful if you could indicate the recorded call for CC1SC2(C(=O)Nc3ccc(Br)cc32)N(c2ccc(Cl)cc2)C1=O (configuration not stated) .
active

----------
# experiment: NCI Yeast Anticancer Drug Screen. Data for the rad50 strain (AID 155);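 also: 0% = growth of vehicle-only cultures of the same strain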
# conditionLabel: S. cerevisiae rad50 strain growth inhibition; at 50.0 µM; hits give high values
About 79,000 compounds went through this panel and 15% of them were active in at least one assay; those are over-represented in the sample as a whole.
measuredMetric: growth inhibition (%)
Return type: number; implicit unit %.

Below, 4 molecules whose answers are already recorded.
1. O=S(=O)(OCC#CCOS(=O)(=O)c1ccc(Cl)c(Cl)c1)c1ccc(Cl)c(Cl)c1 :: 28.8
2. CCCCCN(CCCCC)CCCNc1ccc(C)c2sc3ccccc3c(=O)c12 :: 98.4
3. CN(C)CCOC1(CC2CCCCC2)CCC(C(C)(C)C)CC1 (stereo not drawn) :: 99
4. COc1ccc(C2C(C#N)(C#N)C2(C#N)C#N)cc1 :: 63.5

If you can, please state the reported growth inhibition value of CC1CC(OC(=O)Nc2ccccc2)CC(C)(C)C1 (stereo not drawn) .
78.8

Which growth inhibition reading was recorded for the molecule `Cc1ccc(/C=C2\CCC/C(=C\c3ccc(O)c(CN4CCCCC4)c3)C2=O)cc1` ?
6.8

Data request, read-out growth inhibition, for `COc1ccc(CCN2C(=O)C(=O)N(C3CCCCC3)C2=O)cc1OC`
75.4

Field request: growth inhibition | item: `O=C(O)C1CC[N-]CC1.O=C(O)C1CC[N-]CC1.[Cl][Pt+2]([Cl])([Cl])[Cl]`
97.6

Quick one: growth inhibition for COc1nc2c(ccn2C2OC(COC(C)=O)C(OC(C)=O)C(OC(C)=O)C2OC(C)=O)c(=O)n1C (stereo not drawn) ?
15.2

State the recorded growth inhibition for this entry: `O=C1c2ccc(O)cc2C(=O)c2c1ccc(O)c2O`
76

Need growth inhibition of BrCC(Br)Cc1ccc2c(c1)OCO2 (stereo not drawn) , thanks.
20.8

Dear colleague, I am looking for the recorded growth inhibition of the following molecule: `CC(C)C(=O)/C=C/c1c(Cl)cccc1Cl`
26.6

----------
# experiment: NCI Yeast Anticancer Drug Screen. Data for the mec2-1 strain (AID 157)
# conditionLabel: S. cerevisiae mec2-1 strain, at 5.0 µM (retest, dose inferred, filed as 0.5), hits give high values
The panel holds about 79,000 compounds, 15% with a hit somewhere; the sample as a whole holds those more often.
measuredMetric: growth inhibition (%)
Quick reminder: number only, in %, skip the unit.

Would you mind telling me what growth inhibition value was observed for `Nc1ncnc2c1c(-c1ccc(Cl)cc1)cn2-c1ccccc1` ?
11

What growth inhibition value was documented for this compound, CCOC(=O)C1=C(C)Oc2cc3c(cc2C1c1cc(OC)c(OC)c(OC)c1)OCO3 (stereo unspecified) ?
11

Which growth inhibition is listed for `CCOc1ccc(C=Nc2ccc(/C=C(\C)C(=O)OCCC(C)C)cc2)cc1` ?
72

----------
# experiment: NCI Yeast Anticancer Drug Screen. Data for the bub3 strain (AID 167)
# conditionLabel: S. cerevisiae bub3 mutant strain, at 5.0 µM (retest, dose inferred, filed as 0.5), hits give high values
The panel holds about 79,000 compounds, 15% with a hit somewhere; the sample as a whole holds those more often.
Assign class by growth inhibition: not lower than 40% means condition met; lower than 40% means condition not met.

1. Cn1c(=S)c2[nH]c(SCCN3CCCCC3)nc2n(C)c1=O :: condition not met
2. CCCCCCCCCCCCCCCCCC(=O)Nc1ccn(C2OC(CO)C(O)C2O)c(=O)n1 (stereo unspecified) :: condition met
3. COc1ccc(-c2c(-c3ccccc3)c(C)nc3[nH]c(=S)[nH]c(=S)c23)cc1OC :: condition not met
4. O=C1c2ccccc2C(=O)c2sc(Nc3ccc(Cl)c(Cl)c3)nc21 :: condition met
5. COc1cc2c(Cc3ccc(OC)c(OC)c3)[n+](Cc3ccccc3)ccc2cc1NCc1ccccc1 :: condition met
6. O=C1OC(=O)C2C1C1C(c3ccccc3)=C(c3ccccc3)C2(O)C2C(=O)OC(=O)C12 (stereo unspecified) :: condition not met
7. COc1ccc(C2=C(Cl)C(=O)N(c3ccccc3C)C(=O)C2(Cl)Cl)cc1 :: condition met
8. O=C(CC(=O)c1ccccc1)CC(=O)c1ccccc1 :: condition met

Please check the record `O=C1C(Cl)=C(Cl)C(=O)c2cc(Cl)c(Cl)cc21` and state if its growth inhibition is at or above 40%.
condition met

// inclusive: growth inhibition at least 40%? input: CC(C)c1ccc2c(c1)CCC1C(C)(CN)CCCC21C (stereo unspecified)
condition not met

Hello, I need to know if `C(=C/c1cnnc2ccccc12)/c1ccccn1` has measured growth inhibition not below 40%. Thanks!
condition not met

----------
The following molecules are listed with their measured growth inhibition values.
# experiment: NCI Yeast Anticancer Drug Screen. Data for the sgs1 mgt1 strain (AID 161);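 also: 0% = growth of cultures given vehicle only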
# conditionLabel: S. cerevisiae sgs1 mgt1 strain, at 50.0 µM (retest, dose inferred, filed as 5.0), hits give high values
This is part of a sample that, as a whole, favours compounds with a hit. Of some 79,000 tested, about 15% had one in any assay.
Answer in %, number only, no unit symbol.

1) Cc1ccccc1N=NC(C(=O)c1ccccc1)C(=O)c1ccccc1 :: 93

Query: growth inhibition; subject: `COc1cc(C)c2sc3ccccc3c(=O)c2c1NCCCN(C)C`
58

So what does the record say about growth inhibition for COC1OC2=CCC3C(=O)NC(=O)C3C2[C@H](OCc2ccccc2)C1OCc1ccccc1 (stereo not given in full) ?
99

Endpoint output: growth inhibition of `CCOC(=O)/C(=C\N1C(=O)/C(=C\C(C)=C\c2ccccc2)SC1=S)C(=O)c1ccccc1` . Value?
14

Would you kindly share the measured growth inhibition for CSC(=S)CC(O)[C@@H]1CC2c3ccccc3C1c1ccccc12 (stereo not given in full) ?
93

# input molecule: `NC(N)=N/N=C(\c1ccc(F)cc1)c1ccc(C(F)(F)F)cc1` ; wanted: its growth inhibition
99

What does the record list as growth inhibition for `CCOC(=O)c1cccc(C)c1C(=O)c1ccc(C)cc1C` ?
-36

I'd like to know its growth inhibition. The molecule in question is `CC(/C=N/NS(=O)(=O)c1ccc(C)cc1)=C(c1ccccc1)c1ccccc1`
96

Which value of growth inhibition has been reported for `COc1ccc2c(Cc3ccccc3)c3[n+](cc2c1OC)CCc1cc2c(cc1-3)OCO2` in the records?
99

Record request: growth inhibition value, item `O=[N+]([O-])/C(Cl)=C/C(=C1/Nc2ccccc2O1)[N+](=O)[O-]`
48

----------
# experiment: NCI Yeast Anticancer Drug Screen. Data for the cln2 rad14 strain (AID 165);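 also: 0% = growth equal to vehicle treated cultures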
# conditionLabel: S. cerevisiae cln2 rad14 strain, at 50.0 µM (retest, dose inferred, filed as 5.0)
This is part of a sample that, as a whole, favours compounds with a hit. Of some 79,000 tested, about 15% had one in any assay. The source made the active and inactive calls. No stated cut-off is given here; in the data, active means growth inhibition above about 70%; inactive means the rest. *1 amine or outer side, *2 acyl side, *3 side chain or, on linkers, in order; H or OH if unused. Where a SMILES comes first, the peptide text is derived from it. Bridges are numbered along the chain shown (N, C = ends). Roman numbers before positions name the chains, in order. [ ]: non-standard residue; d: D form. Actinocin(9to1) = Cc1c2oc3c(C)ccc(C(=O)[*:1])c3nc-2c(C(=O)[*:2])c(N)c1=O; NMeV = CN[CH](C(=O)O)C(C)C; Pip = O=C(O)[CH]1CCCCN1; Sar = CNCC(=O)O
The reply should name one outcome from active, inactive

Would you please look over these solved cases?
1) Cc1c2oc3c(C)ccc(C(=O)NC4C(=O)NC(C(C)C)C(=O)N5CCCCC5C(=O)N(C)CC(=O)N(C)C(C(C)C)C(=O)OC4C)c3nc-2c(C(=O)NC2C(=O)NC(C(C)C)C(=O)N3CCCCC3C(=O)N(C)CC(=O)N(C)C(C(C)C)C(=O)OC2C)c(N)c1=O (stereo unspecified) (I: TV[Pip][Sar][NMeV] / II: TV[Pip][Sar][NMeV]; ester I:1-I:C, II:1-II:C; linker I:N-II:N via Actinocin(9to1); configuration not given here) :: inactive
2) CN1CCN(CCCCN2c3ccccc3Sc3ccc(C(=O)c4ccccc4)cc32)CC1 :: inactive
3) COc1cc(C(=O)[O][Sn]([c]2ccccc2)([c]2ccccc2)[c]2ccccc2)cc(OC)c1OC :: active
4) CN(C)c1nc(=NCc2ccco2)ss1 :: inactive
5) CCCCCN(CCCCC)CCCNc1ccc(C)c2sc3ccccc3c(=O)c12 :: active

Now examine the next entry.
Test call for this compound, please: `COc1cc(C)c2sc3ccccc3c(=O)c2c1NCCCN(C)C`
inactive
